testConditions: 390 K; Liquid
Numbers after ± are expanded uncertainties.
observationType: vapor or sublimation pressure
Don't forget the unit after the value.

Would you please look over these solved cases?
CCCCCCCCCCCCCCCCCCCCCCCCCCCCCCCCCCC
9.25e-07 ± 2.8e-07 kPa
CCCCCCCCCCCCCCCCCCCCCCCCCCCCCCC
1.3e-05 ± 2.6e-06 kPa

API: the following record is the query input.
Ask: Find the recorded vapor or sublimation pressure belonging to CCCCCCCCCCCCCCCCCCCCCCCCCCCCCCCCCCCCCC and report it.
Reply: 1.42e-07 ± 4.3e-08 kPa

====

testConditions: 410 K; Liquid
± gives the expanded uncertainty stated by the source.
Quick reference for vapor or sublimation pressure among some molecules

Here is how some molecules turned out for vapor or sublimation pressure.
CCCCCCCCCCCCCCCCCCCCCCCCCCCCCCCCCCCCCC
1.64e-06 ± 4.9e-07 kPa
CCCCCCCCCCCCCCCCCCCCCCCCCCCCCCCC
5.27e-05 ± 1e-05 kPa

Ask: // vapor or sublimation pressure lookup, key: CCCCCCCCCCCCCCCCCCCCCCCCCCCCCCCCC
Reply: 2.92e-05 ± 5.8e-06 kPa

Ask: // same read-out, input: CCCCCCCCCCCCCCCCCCCCCCCCCCCCCCCCCCCCC
Reply: 2.87e-06 ± 8.6e-07 kPa

Ask: Can you check CCCCCCCCCCCCCCCCCCCCCCCCCCCCCCCCCCCC next?
Reply: 5.2e-06 ± 1.6e-06 kPa

Ask: What would you report for CCCCCCCCCCCCCCCCCCCCCCCCCCCCCCCCCCC ?
Reply: 8.87e-06 ± 2.7e-06 kPa

Ask: Repeat with CCCCCCCCCCCCCCCCCCCCCCCCCCCCCCC
Reply: 9.56e-05 ± 1.9e-05 kPa

Ask: Subsequent entry: CCCCCCCCCCCCCCCCCCCCCCCCCCCCCCCCCC
Reply: 1.61e-05 ± 3.2e-06 kPa
